These data points were gathered from PubChem BioAssay (NCI).

- Test system: M14 melanoma
- METHOD_SUMMARY: NCI tumour cell line growth inhibition, 48 h
MEASURED_METRIC: TGI

The cases that follow already have their TGI on record.
# COMPOUND, OBSERVED_VALUE
data = [
    ("Oc1ccc(SCc2cc(O)ccc2O)cc1", "33.7 µM"),
    ("N/C(=N\\C(N)=N\\c1nc2ccccc2s1)c1cnccn1", "> 100 µM"),
    ("COc1ccc(/C(CC2OC(=O)c3ccccc32)=N\\NC(N)=O)cc1 (stereo not drawn)", "> 100 µM"),
]

Name the reported TGI value associated with the compound CSc1nc[nH]c1C(N)=S
> 100 µM

Give the measured TGI of COc1ccc(CC[N+]2(C)COc3cc4oc(=O)cc(C)c4cc3C2)cc1OC (stereo not drawn) .
> 100 µM

Any idea what TGI was measured for Clc1cc2ncn(C3CCCCO3)c2cc1Cl (stereo not drawn) ?
> 100 µM

Data request, read-out TGI, for COc1ccc(N=Nc2c(N)nn3c(SC)c(C#N)c(N)nc23)cc1
25.1 µM

###

- Tested on: HOP-62 NSCLC
- METHOD_SUMMARY: NCI tumour cell line growth inhibition, 48 h; in the data active = GI50 below about 0.43 µM; inactive = the rest
The reply should name one outcome from 1.0 for active, 0.0 for inactive

# lookup: test call for NC(N)=N/N=C/c1c(-c2ccc(Cl)c([N+](=O)[O-])c2)nc2sc3ccccc3n12
0.0

Record lookup: outcome of this test for O=C(N/N=C/c1ccc(F)cc1)c1ccc(C(F)(F)F)nc1Nc1cccc(C(F)(F)F)c1 ?
0.0

###

- Test system: SN12C renal
- METHOD_SUMMARY: NCI tumour cell line growth inhibition, 48 h
MEASURED_METRIC: TGI

# COMPOUND, OBSERVED_VALUE
rows = [
    ("CCOC(=O)c1cc2c3c(cc(OC)c2[nH]1)N(C(=O)OCC)CC3", "> 100 µM"),
    ("N#CCCN(CCC#N)c1ccc(C=Nc2ccc(F)cc2)cc1", "> 100 µM"),
    ("CC1=C2[C@@H](CC1)[C@]1(C)O[C@@](C3CC3)(C[C@H]1OC(=O)CO)[C@H]2OC(=O)/C=C/c1ccccc1", "25.4 µM"),
    ("CNCc1ccc(-c2[nH]c3cc(F)cc4c3c2CCNC4=O)cc1", "48 µM"),
    ("COc1ccc(N=Nc2c(N)nn3c(SC)c(C#N)c(N)nc23)cc1", "19.1 µM"),
    ("C[C@]12CCC3=NCCN3C1=CC[C@@H]1[C@@H]2CC[C@@]2(C)[C@H]1CC[C@]2(C)O", "> 100 µM"),
]

May I ask what TGI has been recorded for N#CCC1(n2cc(-c3ncnc4[nH]ccc34)cn2)CN(C2CCN(C(=O)c3ccnc(C(F)(F)F)c3F)CC2)C1 ?
> 100 µM

Need TGI, item COc1cc2c(cc1OC)C(=O)/C(=C/c1ccc(N(C)C)cc1)CC2
> 10 µM

Data request, read-out TGI, for C[n+]1c(-c2ccc(/C=N/NC(=O)C(=O)N/N=C/c3ccc(-c4cn5ccccc5[n+]4C)cc3)cc2)cn2ccccc21
> 100 µM

What TGI value was documented for this compound, Cn1ccnc1C(=O)/C=C/c1ccc(C(=O)Nc2c(F)c(F)c(F)c(F)c2F)cc1 ?
3.69 µM

Entry O=c1[nH]c2ccc([N+](=O)[O-])cc2nc1/C(=N/Nc1ccccc1)C(O)c1ccco1 (stereo not drawn) has what TGI?
> 100 µM

I'd like to know its TGI. The compound in question is C=CCOC(=O)N1c2ccc(O)cc2[C@@]23O[C@@]24[C@@H]1C#C/C=C\C#C[C@]3(O)C(=O)C[C@@H]4C
> 100 µM

For CC(C)(CN1CCCCC1)C(=O)CC(SCCS(=O)(=O)O)c1ccc(Cl)cc1 (stereo not drawn) , what is its reported TGI?
15.8 µM

I am curious: what TGI value has been reported for CC(=O)OCC1OC(n2c(=S)n(-c3ccccc3)c(=O)c3cc(Br)cc(Br)c32)C(OC(C)=O)C(OC(C)=O)C1OC(C)=O (stereo not drawn) ?
> 100 µM

###

Reported TGI values are given for each entry in this list.
- Test system: SF-539 CNS
- METHOD_SUMMARY: NCI tumour cell line growth inhibition, 48 h

# count of solved cases: 3
# COMPOUND, TGI
records = [
    ("Clc1ccc2c(NCCCN3CCN(c4nc(N5CCOCC5)nc5ccccc45)CC3)ccnc2c1", "3.14 µM"),
    ("CC[C@@]1(O)C(=O)OCc2c1cc1n(c2=O)Cc2c-1nc1ccccc1c2C=Nc1ccccc1N[C@@H]1c2cc3c(cc2[C@@H](c2cc(OC)c(O)c(OC)c2)[C@H]2C(=O)OC[C@@H]21)OCO3", "0.239 µM"),
    ("S=c1[nH]n2c(COc3cc(Cl)c(OCc4nnc5sc(=S)[nH]n45)cc3Cl)nnc2s1", "> 100 µM"),
]

# lookup: TGI of COc1ccc2c(c1)[n+](=O)c(C(C)=O)c(C)n2[O-]
> 100 µM

Would you mind telling me what TGI value was observed for CSc1nc[nH]c1C(N)=S ?
> 100 µM

TGI for C=C(Cn1c2ccccc2c(=O)c2ccccc21)c1ccc(C(=O)Nc2ccccc2N)cc1 ?
> 100 µM

Reported TGI for c1cc2c(cc1[C@@H]1OC[C@@H]3[C@H]1CO[C@H]3c1ccc3c(c1)OCO3)OCO2 : what is it?
> 100 µM

So what's the measured TGI for this one? NC(Cc1ccccc1CP(=O)(O)O)C(=O)O (stereo not given)
> 100 µM

May I ask what TGI has been recorded for O=c1c2cc(I)ccc2nc(-c2cccs2)n1O ?
> 100 µM

I'd like to know its TGI. The compound in question is Nc1nc(=S)c2[nH]cnc2[nH]1
68.8 µM [middle of 4 runs]

###

- System: DU-145 prostate
- METHOD_SUMMARY: NCI tumour cell line growth inhibition, 48 h
MEASURED_METRIC: GI50

Some entries whose results are on file:
# COMPOUND, MEASURED_METRIC, OBSERVED_VALUE
records = [
    ("CCCCC[C@@H](C/C=C/CCC(=O)NC/C(=C/Cl)[C@H]1C(=O)C(C)(C)C(=O)[C@@H](C)[C@@]1(C)O)OC", "GI50", "16.8 µM"),
    ("COc1c(O)c2c3c(c1OC)-c1ccccc1CC3N(S(=O)(=O)c1ccc(C)cc1)CC2 (stereo not given)", "GI50", "1.62 µM"),
    ("OCCCCC#Cc1ccccc1C#Cc1ccc(C(F)(F)F)cc1", "GI50", "15.8 µM"),
]

For the compound shown here, NC(N)=N/N=C/c1c(-c2ccncc2)nc2sc(Cl)cn12 , give the reported GI50.
17.5 µM

Fill in: GI50 of COc1ccc(/C=C\c2cc(OC)c(OC)c(OC)c2)c(NS(=O)(=O)c2ccc(C(C)(C)C)cc2)c1O is ___
0.395 µM

###

- Tested on: SK-MEL-5 melanoma
- METHOD_SUMMARY: NCI tumour cell line growth inhibition, 48 h
TGI values by entry

Past entries and their recorded results:
# COMPOUND, OBSERVED_VALUE
data = [
    ("CN(/N=C\\c1ccc2ccccc2c1)C1=NCCCN1", "24.6 µM"),
    ("O=C(O)C1(C(O)c2ccccc2)SCCCS1 (stereo unspecified)", "> 10 µM"),
    ("O=C(O)CCC1NC(/C(=C/c2ccccc2O)NC(=O)c2ccccc2)OC1=O (stereo unspecified)", "> 100 µM"),
    ("Cc1cc2c(cc1Cl)Sc1n[nH]c(=O)n1S2(=O)=O", "> 100 µM"),
    ("Cc1ccc(C2=C(Cl)C(=O)C(c3ccc(C)cc3)=C(Cl)C2=O)cc1", "> 100 µM"),
    ("CC(CC=O)Nc1nn2c(=O)c3ccccc3nc2s1 (stereo unspecified)", "> 100 µM"),
    ("CC1(C)CC[C@]2(C(=O)O)CC[C@]3(C)C(=CC[C@@H]4[C@@]5(C)C/C(=C/c6ccco6)C(=O)C(C)(C)[C@@H]5CC[C@]43C)[C@@H]2C1", "8.74 µM"),
    ("COc1ccc(N=Nc2c(N)nn3c(SC)c(C#N)c(N)nc23)cc1", "34.7 µM"),
]

GET /values?readout=TGI&item= COc1cccc(N=NN2CCCC2)c1
> 100 µM

# get_value(readout='TGI', item= COC(=O)CC1CC2(C(=O)OC)c3[nH]c4ccccc4c3CCN2C1=O (stereo unspecified) )
> 100 µM

Consider the compound S=c1[nH]n2c(COc3cc(Cl)c(OCc4nnc5sc(=S)[nH]n45)cc3Cl)nnc2s1 and give its measured TGI.
> 100 µM
